- study target: T1, Human ACVR2A (human, UniProt P27037 20-135, limits assumed); also: test concentration or dose not given here
- T1 construct: also called activin receptor, type II A
- T1 sequence (P27037 20-135 limits assumed): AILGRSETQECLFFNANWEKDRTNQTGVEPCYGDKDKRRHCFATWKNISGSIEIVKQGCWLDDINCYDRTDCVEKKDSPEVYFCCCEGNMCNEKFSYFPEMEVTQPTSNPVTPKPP
- experiment description: ELISA
- Method: The binding of ACVR2A-specific monoclonal antibodies to human ACVR2A, mouse ACVR2A, biotinylated goat anti-human kappa light chain (positive control) and human Fc (negative control) were determined by ELISA.
metric name: optical density (OD)
Please reply with the bare figure in OD and do not write the unit itself.

binder | metric name | unit of measurement | numeric readout
367_C01 (antibody, V domains shown) VH: EVQLLESGGGLVQPGGSLRLSCAASGFTFDDYSMNWVRQAPGKGLEWVSGINYNGGYKSYADSVKGRFTISRDNSKNTLYLQMNSLRAEDTAVYYCARSANWHDTHLDYWGQGTLVTVSS VL: DIQMTQSPSSLSASVGDRVTITCRASQSILTYLNWYQQKPGKAPKLVIYATTSLHSGVPSRFSGSGSGTDFTLTISSLQPEDFATYYCQQSYDTPLTFGGGTKVEIK | optical density | OD | 2.62

Recorded optical density of 371_H09 (antibody, V domains shown) VH: EVQLLESGGGLVQPGGSLRLSCAASGFTFDSYSMNWVRQAPGKGLEWVSNINYNGGYTSYADSVKGRFTISRDNSKNTLYLQMNSLRAEDTAVYYCARSANWHDTALDYWGQGTLVTVSS VL: DIQMTQSPSSLSASVGDRVTITCRASQSILTYVNWYQQKPGKAPKLVIYAATSLASGVPSRFSGSGSGTDFTLTISSLQPEDFATYYCQQSYDSPLTFGGGTKVEIK , please. 2.96

What about 368_E01 (antibody, V domains shown) VH: EVQLLESGGGLVQPGGSLRLSCAASGFTFSSYSMNWVRQAPGKGLEWVASINYNSGYTGYADSVKGRFTISRDNSKNTLYLQMNSLRAEDTAVYYCARSANWHDTHLDYWGQGTLVTVSS VL: DIQMTQSPSSLSASVGDRVTITCRASQSILSYLNWYQQKPGKAPKLLIYAVTSRHSGVPSRFSGSGSGTDFTLTISSLQPEDFATYYCQQSYSLPLTFGGGTKVEIK ? 2.57
